- assayText: Ratio of drug level in blood to plasma in dog
- Assay type: ADME, cell-free, Canis lupus familiaris
- testParameters: blood and plasma, read-out: BPR
reportedProperty: blood plasma ratio
Give bare numbers.

Query: Item under review: CN(Cc1ccccc1)C(=O)[C@@H](NC(=O)c1cc2cc(NC(=O)c3ccccc3-c3ccc(C(F)(F)F)cc3)ccc2n1C)c1ccccc1 [DIRLOTAPIDE] . Reported blood plasma ratio?
Reply: 0.54

* * *

- assayText: Half life in rat at 1 mg/kg, iv
- Format: ADME, organism-based
- Parameters: dose 1 mg/kg, route intravenous
- testParameters: in vivo
reportedProperty: half-life (h)
One number for each entry, in h.

Query: Item under review: CN(Cc1ccccc1)C(=O)[C@@H](NC(=O)c1cc2cc(NC(=O)c3ccccc3-c3ccc(C(F)(F)F)cc3)ccc2n1C)c1ccccc1 [DIRLOTAPIDE] . Reported half-life?
Reply: 5.8

* * *

- tgt: Cytochrome P450 2C19 (Homo sapiens, UniProt P33261)
- Sequence (P33261 whole entry): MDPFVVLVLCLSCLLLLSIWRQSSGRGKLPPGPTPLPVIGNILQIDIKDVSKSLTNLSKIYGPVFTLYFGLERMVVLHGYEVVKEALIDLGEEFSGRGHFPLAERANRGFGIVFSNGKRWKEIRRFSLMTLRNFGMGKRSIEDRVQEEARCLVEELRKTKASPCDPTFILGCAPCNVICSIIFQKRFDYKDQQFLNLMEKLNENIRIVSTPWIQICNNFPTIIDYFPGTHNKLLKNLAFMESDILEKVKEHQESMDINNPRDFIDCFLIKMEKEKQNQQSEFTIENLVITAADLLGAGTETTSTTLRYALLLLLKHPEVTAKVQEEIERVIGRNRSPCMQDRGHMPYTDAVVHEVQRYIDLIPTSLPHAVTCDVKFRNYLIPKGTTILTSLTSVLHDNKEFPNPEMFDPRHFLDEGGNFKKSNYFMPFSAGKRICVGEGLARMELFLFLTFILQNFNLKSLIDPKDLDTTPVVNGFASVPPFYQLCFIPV
reportedProperty: IC50

Query: Item under review: CN(Cc1ccccc1)C(=O)[C@@H](NC(=O)c1cc2cc(NC(=O)c3ccccc3-c3ccc(C(F)(F)F)cc3)ccc2n1C)c1ccccc1 [DIRLOTAPIDE] . Reported IC50?
Reply: > 30 µM

* * *

- assayText: Bioavailability in rat at 3 mg/kg, po
- Assay type: ADME, organism-based
- testParameters: in vivo
reportedProperty: bioavailability (%)
Numbers only, in %.

Query: Item under review: CN(Cc1ccccc1)C(=O)[C@@H](NC(=O)c1cc2cc(NC(=O)c3ccccc3-c3ccc(C(F)(F)F)cc3)ccc2n1C)c1ccccc1 [DIRLOTAPIDE] . Reported bioavailability?
Reply: 2.6

* * *

- assayText: Volume of distribution at steady state in Beagle dog at 0.5 mg/kg, iv
- Type: ADME, organism-based, Canis lupus familiaris
- Set-up: dose 0.5 mg/kg, route intravenous
- testParameters: in vivo, read-out: Vdss
reportedProperty: Vd
Report the figure along with its unit, number first.

Query: Item under review: CN(Cc1ccccc1)C(=O)[C@@H](NC(=O)c1cc2cc(NC(=O)c3ccccc3-c3ccc(C(F)(F)F)cc3)ccc2n1C)c1ccccc1 [DIRLOTAPIDE] . Reported Vd?
Reply: 1 L/kg

* * *

- assayText: AUC (0 to infinity) in rat at 1 mg/kg, iv
- Type: ADME, organism-based
- Set-up: time infinity, dose 1 mg/kg, route intravenous
- testParameters: plasma
reportedProperty: AUC(0-inf)
Report the figure along with its unit, number first.

Query: Item under review: CN(Cc1ccccc1)C(=O)[C@@H](NC(=O)c1cc2cc(NC(=O)c3ccccc3-c3ccc(C(F)(F)F)cc3)ccc2n1C)c1ccccc1 [DIRLOTAPIDE] . Reported AUC(0-inf)?
Reply: 530 ng·h/mL

* * *

- assayText: AUC (0 to t) in Beagle dog at 0.5 mg/kg, iv
- Assay type: ADME, organism-based, Canis lupus familiaris
- Design: dose 0.5 mg/kg, route intravenous
- testParameters: plasma
reportedProperty: AUC(0-t) (ng·h/mL)
Numbers only, in ng·h/mL.

Query: Item under review: CN(Cc1ccccc1)C(=O)[C@@H](NC(=O)c1cc2cc(NC(=O)c3ccccc3-c3ccc(C(F)(F)F)cc3)ccc2n1C)c1ccccc1 [DIRLOTAPIDE] . Reported AUC(0-t)?
Reply: 1490

* * *

- assayText: Permeability from apical to basolateral side of the Caco-2 cell membrane at 10 uM in presence of calcium
- Assay type: ADME, cell-based
- testParameters: human
reportedProperty: Papp A→B at 10 µM
Report the figure along with its unit, number first.

Query: Item under review: CN(Cc1ccccc1)C(=O)[C@@H](NC(=O)c1cc2cc(NC(=O)c3ccccc3-c3ccc(C(F)(F)F)cc3)ccc2n1C)c1ccccc1 [DIRLOTAPIDE] . Reported Papp A→B at 10 µM?
Reply: 0.4 ×10⁻⁶ cm/s

* * *

- assayText: AUC (0 to t) in rat at 1 mg/kg, iv
- Assay type: ADME, organism-based
- Parameters: dose 1 mg/kg, route intravenous
- testParameters: plasma
reportedProperty: AUC(0-t) (ng·h/mL)
Numbers only, in ng·h/mL.

Query: Item under review: CN(Cc1ccccc1)C(=O)[C@@H](NC(=O)c1cc2cc(NC(=O)c3ccccc3-c3ccc(C(F)(F)F)cc3)ccc2n1C)c1ccccc1 [DIRLOTAPIDE] . Reported AUC(0-t)?
Reply: 485

* * *

- tgt: Cytochrome P450 3A4 (Homo sapiens, UniProt P08684)
- Sequence (P08684 whole entry): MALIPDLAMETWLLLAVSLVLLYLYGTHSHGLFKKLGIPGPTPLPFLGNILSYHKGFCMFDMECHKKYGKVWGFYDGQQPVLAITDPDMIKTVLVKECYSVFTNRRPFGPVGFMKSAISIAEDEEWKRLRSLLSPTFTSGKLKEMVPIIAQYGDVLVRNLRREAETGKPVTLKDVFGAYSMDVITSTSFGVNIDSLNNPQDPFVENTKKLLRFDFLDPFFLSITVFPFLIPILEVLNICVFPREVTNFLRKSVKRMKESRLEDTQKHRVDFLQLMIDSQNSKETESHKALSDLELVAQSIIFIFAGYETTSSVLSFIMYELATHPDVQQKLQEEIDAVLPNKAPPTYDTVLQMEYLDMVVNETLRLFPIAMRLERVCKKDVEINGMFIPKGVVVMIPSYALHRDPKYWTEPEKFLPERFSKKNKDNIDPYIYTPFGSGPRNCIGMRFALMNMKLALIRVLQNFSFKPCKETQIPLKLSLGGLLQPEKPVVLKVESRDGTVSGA
reportedProperty: IC50

Query: Item under review: CN(Cc1ccccc1)C(=O)[C@@H](NC(=O)c1cc2cc(NC(=O)c3ccccc3-c3ccc(C(F)(F)F)cc3)ccc2n1C)c1ccccc1 [DIRLOTAPIDE] . Reported IC50?
Reply: > 30 µM

* * *

- assayText: Plasma clearance in Beagle dog at 1 mg/kg, iv
- Assay type: ADME, organism-based, Canis lupus familiaris
- Design: dose 1 mg/kg, route intravenous
reportedProperty: clearance
Report the figure along with its unit, number first.

Query: Item under review: CN(Cc1ccccc1)C(=O)[C@@H](NC(=O)c1cc2cc(NC(=O)c3ccccc3-c3ccc(C(F)(F)F)cc3)ccc2n1C)c1ccccc1 [DIRLOTAPIDE] . Reported clearance?
Reply: 4.7 mL/min/kg

* * *

- tgt: Cytochrome P450 1A2 (Homo sapiens, UniProt P05177)
- Sequence (P05177 whole entry): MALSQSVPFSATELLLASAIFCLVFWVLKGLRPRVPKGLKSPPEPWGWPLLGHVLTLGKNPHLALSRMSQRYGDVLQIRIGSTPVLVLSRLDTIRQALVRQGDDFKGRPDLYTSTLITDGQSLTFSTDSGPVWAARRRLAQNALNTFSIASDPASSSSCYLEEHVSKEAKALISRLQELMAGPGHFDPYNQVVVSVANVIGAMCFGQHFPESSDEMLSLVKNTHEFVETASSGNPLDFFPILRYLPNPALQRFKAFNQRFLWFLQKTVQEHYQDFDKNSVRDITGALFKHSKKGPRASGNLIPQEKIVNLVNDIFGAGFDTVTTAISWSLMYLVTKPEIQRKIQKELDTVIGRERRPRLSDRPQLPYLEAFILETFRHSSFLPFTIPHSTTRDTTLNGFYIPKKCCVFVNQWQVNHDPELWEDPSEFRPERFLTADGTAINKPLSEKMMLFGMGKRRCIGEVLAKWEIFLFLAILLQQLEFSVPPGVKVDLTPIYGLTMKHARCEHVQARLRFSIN
pIC50: −log10 of the molar value.
reportedProperty: pIC50

Query: Item under review: CN(Cc1ccccc1)C(=O)[C@@H](NC(=O)c1cc2cc(NC(=O)c3ccccc3-c3ccc(C(F)(F)F)cc3)ccc2n1C)c1ccccc1 [DIRLOTAPIDE] . Reported pIC50?
Reply: < 4.52

* * *

- assayText: AUC (0 to infinity) in rat at 0.3 mg/kg, iv
- Assay type: ADME, organism-based
- Design: time infinity, dose 0.3 mg/kg, route intravenous
- testParameters: plasma
reportedProperty: AUC(0-inf) (ng·h/mL)
Numbers only, in ng·h/mL.

Query: Item under review: CN(Cc1ccccc1)C(=O)[C@@H](NC(=O)c1cc2cc(NC(=O)c3ccccc3-c3ccc(C(F)(F)F)cc3)ccc2n1C)c1ccccc1 [DIRLOTAPIDE] . Reported AUC(0-inf)?
Reply: 55

* * *

- assayText: Volume of distribution at steady state in rat at 5 mg/kg, iv
- Format: ADME, organism-based
- Parameters: dose 5 mg/kg, route intravenous
- testParameters: in vivo, read-out: Vdss
reportedProperty: Vd (L/kg)
Numbers only, in L/kg.

Query: Item under review: CN(Cc1ccccc1)C(=O)[C@@H](NC(=O)c1cc2cc(NC(=O)c3ccccc3-c3ccc(C(F)(F)F)cc3)ccc2n1C)c1ccccc1 [DIRLOTAPIDE] . Reported Vd?
Reply: 3.3

* * *

- assayText: Intrinsic clearance in rat microsomes
- Assay type: ADME, Microsome
reportedProperty: CLint scaled (mL/min/kg)
One number for each entry, in mL/min/kg.

Query: Item under review: CN(Cc1ccccc1)C(=O)[C@@H](NC(=O)c1cc2cc(NC(=O)c3ccccc3-c3ccc(C(F)(F)F)cc3)ccc2n1C)c1ccccc1 [DIRLOTAPIDE] . Reported CLint scaled?
Reply: 645

* * *

- assayText: Half life in Beagle dog at 5 mg/kg, po
- Type: ADME, organism-based, Canis lupus familiaris
- Set-up: dose 5 mg/kg, route oral
- testParameters: in vivo
reportedProperty: half-life (h)
Give bare numbers, in h.

Query: Item under review: CN(Cc1ccccc1)C(=O)[C@@H](NC(=O)c1cc2cc(NC(=O)c3ccccc3-c3ccc(C(F)(F)F)cc3)ccc2n1C)c1ccccc1 [DIRLOTAPIDE] . Reported half-life?
Reply: 5.9

* * *

- assayText: Half life in rat at 0.3 mg/kg, iv
- Assay type: ADME, organism-based
- Set-up: dose 0.3 mg/kg, route intravenous
- testParameters: in vivo
reportedProperty: half-life
Report the figure along with its unit, number first.

Query: Item under review: CN(Cc1ccccc1)C(=O)[C@@H](NC(=O)c1cc2cc(NC(=O)c3ccccc3-c3ccc(C(F)(F)F)cc3)ccc2n1C)c1ccccc1 [DIRLOTAPIDE] . Reported half-life?
Reply: 2 h

* * *

- assayText: Permeability from basolateral to apical side of the Caco-2 cell membrane at 10 uM in presence of calcium
- Format: ADME, cell-based
- testParameters: human
reportedProperty: Papp B→A at 10 µM

Query: Item under review: CN(Cc1ccccc1)C(=O)[C@@H](NC(=O)c1cc2cc(NC(=O)c3ccccc3-c3ccc(C(F)(F)F)cc3)ccc2n1C)c1ccccc1 [DIRLOTAPIDE] . Reported Papp B→A at 10 µM?
Reply: 0.3 ×10⁻⁶ cm/s

* * *

- assayText: AUC (0 to t) in monkey at 0.5 mg/kg, iv
- Format: ADME, organism-based, Macaca mulatta
- Design: dose 0.5 mg/kg, route intravenous
- testParameters: rhesus monkey, plasma
reportedProperty: AUC(0-t) (ng·h/mL)
Numbers only, in ng·h/mL.

Query: Item under review: CN(Cc1ccccc1)C(=O)[C@@H](NC(=O)c1cc2cc(NC(=O)c3ccccc3-c3ccc(C(F)(F)F)cc3)ccc2n1C)c1ccccc1 [DIRLOTAPIDE] . Reported AUC(0-t)?
Reply: 684
